# Kd listing for each entry below
Target Or Test System: T1, human GPC3-his tag protein (human, UniProt P51654 25-559, limits assumed)
T1 construct: recombinant soluble antigen used as analyte in all Biacore runs; also called recombinant GPC3 protein; rhGPC3-His; not shown: His tag
Test: SPR Biacore 8K, mAb captured, one or two doses GPC3-his
Experimental: The binding of the optimized antibodies of 52H5D3B8 mAb to human GPC3-his was tested with Biacore using a capture method. A single dose or two doses of human GPC3-his tag protein was injected over captured antibody. All the experiments were carried out on a Biacore 8K. Data analysis was carried out using Biacore 8K evaluation software.
Provide the reading as a plain figure in nM.

Field: example entries. Status: answers known.
52H5D3B8-7# chimeric mAb (antibody, V domains shown, CDR3 mutant of the 52H5D3B8 chimeric mAb (human IgG1)) VH: QVQLQQSGAELVRPGASVKLSCKALGYTFTDYEMHWVKQTPVHGLEWIGAIHPGSGGTAYNQKFKGKATLTADKFSSTGYMELSSLTSEDSAVYYCTRYYSYAYWGQGTLVTVSA VL: DVVMTQTPLSLPVSLGDQASISCRSSQSLVHSNGNTYLQWYLQKPGQSPKLLIYKVSNRFSGVPDRFSGSGSGTDFILKISRVEAEDLGVYFCSQSTHVPYTFGGGTKLEIK :: 3.97
52H5D3B8-12# chimeric mAb (antibody, V domains shown, CDR3 mutant of the 52H5D3B8 chimeric mAb (human IgG1)) VH: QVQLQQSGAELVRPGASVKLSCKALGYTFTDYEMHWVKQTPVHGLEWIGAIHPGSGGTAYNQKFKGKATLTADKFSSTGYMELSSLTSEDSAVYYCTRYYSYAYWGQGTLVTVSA VL: DVVMTQTPLSLPVSLGDQASISCRSSQSLVHSNGNTYLQWYLQKPGQSPKLLIYKVSNRFSGVPDRFSGSGSGTDFILKISRVEAEDLGVYFCFQSTHVPYTFGGGTKLEIK :: 5.56
52H5D3B8-2# chimeric mAb (antibody, V domains shown, CDR3 mutant of the 52H5D3B8 chimeric mAb (human IgG1)) VH: QVQLQQSGAELVRPGASVKLSCKALGYTFTDYEMHWVKQTPVHGLEWIGAIHPGSGGTAYNQKFKGKATLTADKFSSTGYMELSSLTSEDSAVYYCTRFYSFAYWGQGTLVTVSA VL: DVVMTQTPLSLPVSLGDQASISCRSSQSLVHSNGNTYLQWYLQKPGQSPKLLIYKVSNRFSGVPDRFSGSGSGTDFILKISRVEAEDLGVYFCSQSIHVPYTFGGGTKLEIK :: 5.31

The record that follows has no Kd shown yet.
-- ask I have this binder here, 52H5D3B8-8# chimeric mAb (antibody, V domains shown, CDR3 mutant of the 52H5D3B8 chimeric mAb (human IgG1)) VH: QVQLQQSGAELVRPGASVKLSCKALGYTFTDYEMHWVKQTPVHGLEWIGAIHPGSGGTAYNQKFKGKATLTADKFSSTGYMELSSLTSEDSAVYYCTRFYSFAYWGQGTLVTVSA VL: DVVMTQTPLSLPVSLGDQASISCRSSQSLVHSNGNTYLQWYLQKPGQSPKLLIYKVSNRFSGVPDRFSGSGSGTDFILKISRVEAEDLGVYFCFQSIHVPYTFGGGTKLEIK , and I need its recorded Kd.
-- reply 2.03
